B1: Pistol ribozyme (parent)
chain: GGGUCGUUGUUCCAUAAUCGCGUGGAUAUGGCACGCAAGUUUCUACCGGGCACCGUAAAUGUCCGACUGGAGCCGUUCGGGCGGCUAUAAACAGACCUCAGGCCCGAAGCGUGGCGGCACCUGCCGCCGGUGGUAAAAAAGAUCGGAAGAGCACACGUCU

- Variants of: B1
- PROTOCOL SUMMARY: aptazyme ON/OFF ratio, guanine; higher = stronger switching; co-transcriptional cleavage with and without guanine
QUANTITY: aptazyme ON/OFF ratio

> print(dat)
                       variant.code               quantity  numeric.result
 1            U7C U8G G9U U10A C12G  aptazyme ON/OFF ratio            1.18
 2       U7C U8C G9A U10G U11A C12G  aptazyme ON/OFF ratio            1.17
 3              U10G U11C C12G C13A  aptazyme ON/OFF ratio            1.28
 4  U7C U8G G9U U10G U11C C12A C13A  aptazyme ON/OFF ratio            1.11
 5       U7A U8A G9A U10A U11A C12A  aptazyme ON/OFF ratio            1.26
 6                     U7A U8C U11G  aptazyme ON/OFF ratio            1.37
 7      U7C G9C U10C U11G C12G C13U  aptazyme ON/OFF ratio            1.12
 8           U8A G9U U10A U11G C12G  aptazyme ON/OFF ratio            1.24
 9               U8G U11G C12A C13A  aptazyme ON/OFF ratio            1.13
10       U7C U8A G9U U10A U11C C12U  aptazyme ON/OFF ratio            1.07
11                     U7C G9C U10C  aptazyme ON/OFF ratio            1.14
12  U7C U8G G9C U10C U11A C12G C13U  aptazyme ON/OFF ratio            1.12
13      U7C G9A U10G U11A C12A C13G  aptazyme ON/OFF ratio            1.09
14                 U7C U8G G9A C12U  aptazyme ON/OFF ratio            1.19
15           U8C G9A U10C U11G C13A  aptazyme ON/OFF ratio             1.2
16       U7A U8A G9A U10A C12U C13U  aptazyme ON/OFF ratio            1.47
17           U8C G9U U10G U11A C12G  aptazyme ON/OFF ratio            1.22
18       U7A U8C G9C U10C U11C C13U  aptazyme ON/OFF ratio           0.981
19              U10C U11A C12U C13A  aptazyme ON/OFF ratio            1.38
20      U7C G9C U10A U11A C12U C13G  aptazyme ON/OFF ratio            1.06
21          G9U U10C U11C C12G C13G  aptazyme ON/OFF ratio            1.11
22  U7G U8C G9A U10C U11C C12U C13A  aptazyme ON/OFF ratio            1.04
23           U8G G9C U10C U11C C13G  aptazyme ON/OFF ratio            1.01
24                U8A G9U C12A C13A  aptazyme ON/OFF ratio            1.52
25                    G9U U10A U11C  aptazyme ON/OFF ratio            1.33
26      U7G U8C U10G U11A C12G C13A  aptazyme ON/OFF ratio            1.09
27      U7G U8G U10C U11G C12G C13G  aptazyme ON/OFF ratio            1.41
28      U7A U8C U10A U11G C12A C13A  aptazyme ON/OFF ratio            1.17
29           U7G G9A U10A C12A C13A  aptazyme ON/OFF ratio            1.06
30          G9U U10G U11G C12U C13A  aptazyme ON/OFF ratio             1.1
31  U7G U8G G9C U10C U11C C12A C13A  aptazyme ON/OFF ratio            1.05
32            U7C U8C G9U U10C U11G  aptazyme ON/OFF ratio            1.32
33       U7A U8C G9C U11A C12U C13U  aptazyme ON/OFF ratio            1.07
34          U7A U10G U11C C12U C13G  aptazyme ON/OFF ratio            1.41
35  U7A U8C G9C U10A U11G C12G C13G  aptazyme ON/OFF ratio            1.13
36  U7C U8G G9U U10C U11A C12A C13A  aptazyme ON/OFF ratio            1.26
37  U7C U8A G9A U10A U11G C12A C13G  aptazyme ON/OFF ratio            1.09
38          U8G U10C U11C C12G C13U  aptazyme ON/OFF ratio            1.15
39      U8A G9U U10A U11A C12G C13G  aptazyme ON/OFF ratio            1.32
40      U8C G9C U10A U11A C12G C13G  aptazyme ON/OFF ratio            1.18
41           U8A G9C U11C C12G C13G  aptazyme ON/OFF ratio            1.05
42           U7A U8C U10C U11G C12G  aptazyme ON/OFF ratio            1.25
43       U7C U8A G9U U10C U11A C12A  aptazyme ON/OFF ratio            1.13
44  U7A U8G G9A U10G U11G C12A C13G  aptazyme ON/OFF ratio            1.34
45               U8G U10A C12A C13U  aptazyme ON/OFF ratio            1.27
46      U7A G9A U10G U11C C12G C13G  aptazyme ON/OFF ratio            1.18
47            U7A U8C G9U U10A C12A  aptazyme ON/OFF ratio            1.25
48  U7C U8G G9C U10G U11A C12A C13U  aptazyme ON/OFF ratio            1.23
49                U7C U8G U10C U11A  aptazyme ON/OFF ratio            2.93
50      U7C G9C U10C U11A C12U C13A  aptazyme ON/OFF ratio            1.03
51           U7G G9U U10G U11C C13G  aptazyme ON/OFF ratio            1.11
52      U7A U8G U10C U11A C12A C13A  aptazyme ON/OFF ratio            1.27
53                U8G G9U C12A C13G  aptazyme ON/OFF ratio            1.22
54           U8A G9U U10G U11G C13G  aptazyme ON/OFF ratio            1.06
55          U8C U10A U11C C12G C13U  aptazyme ON/OFF ratio             1.2
56  U7A U8G G9C U10G U11G C12A C13G  aptazyme ON/OFF ratio            1.16
57            U7A U8C G9A U11A C12G  aptazyme ON/OFF ratio            1.26
58           U7C U8C U10G U11A C13U  aptazyme ON/OFF ratio            1.15
59                U8G G9A U10C U11A  aptazyme ON/OFF ratio            1.37
60                        U10A C12G  aptazyme ON/OFF ratio            1.65
61  U7C U8A G9C U10C U11G C12A C13U  aptazyme ON/OFF ratio            1.08
62               U7A U10G U11A C12G  aptazyme ON/OFF ratio            1.24
63       U7C U8G G9C U10C U11C C12G  aptazyme ON/OFF ratio            1.05
64           U8C G9U U11C C12G C13A  aptazyme ON/OFF ratio            1.13
65                U7G G9A U10A C12A  aptazyme ON/OFF ratio             1.2
66      U7G U8A U10C U11G C12U C13U  aptazyme ON/OFF ratio            1.42
67            U7A U8A G9U U11C C13U  aptazyme ON/OFF ratio            1.04
68           U8G G9A U10G U11A C13U  aptazyme ON/OFF ratio            1.14
69                    G9U U11G C12U  aptazyme ON/OFF ratio            1.99
70                U8C G9U U11G C12G  aptazyme ON/OFF ratio             1.2
71      U8C G9C U10C U11C C12A C13U  aptazyme ON/OFF ratio            1.02
72      U7G G9A U10C U11A C12U C13A  aptazyme ON/OFF ratio            1.11
73  U7G U8A G9U U10A U11C C12A C13G  aptazyme ON/OFF ratio            1.02
74       U7G U8G G9U U10A U11G C12U  aptazyme ON/OFF ratio            1.07
75           U7A G9C U10C C12U C13U  aptazyme ON/OFF ratio            1.06
76                 U7G U8G G9A C12G  aptazyme ON/OFF ratio            1.59
77      U7A U8A U10G U11A C12A C13A  aptazyme ON/OFF ratio            1.64
78                U7A G9C U10A C13A  aptazyme ON/OFF ratio            1.16
79            U7G U8G G9C C12A C13A  aptazyme ON/OFF ratio            1.22
80           U7A U8G U10G U11A C12G  aptazyme ON/OFF ratio            1.59
81  U7A U8A G9C U10A U11A C12U C13U  aptazyme ON/OFF ratio            1.13
82           U7G U8C U10G U11A C12A  aptazyme ON/OFF ratio            1.15
83      U7A U8C U10G U11G C12G C13A  aptazyme ON/OFF ratio            1.08
84      U7C U8G U10C U11G C12A C13A  aptazyme ON/OFF ratio            1.11
85          G9C U10A U11A C12U C13A  aptazyme ON/OFF ratio            1.34
86      U7A U8G U10A U11A C12U C13U  aptazyme ON/OFF ratio            1.28
87            U7C U8C G9C U11C C13G  aptazyme ON/OFF ratio            1.04
88           U7A U8C U10A C12G C13A  aptazyme ON/OFF ratio            1.09
89       U7A U8C G9A U10G U11G C12G  aptazyme ON/OFF ratio            1.44
90                U7A G9U U10G C12U  aptazyme ON/OFF ratio            1.43
91      U8C G9C U10A U11C C12U C13G  aptazyme ON/OFF ratio            1.17
